Just for reference, ChEMBL document CHEMBL6071211 is where these values come from.

# Protocol summary: Volume of distribution at steady state in Cynomolgus monkey at 2 mg/kg, iv
# Type: ADME, organism-based, Macaca fascicularis
# Conditions: in vivo, read-out: Vdss
Recorded endpoint: Vd (L/kg)

Smiles str	Recorded endpoint	Value units	Reported result
C=C(C)[C@@H]1CC[C@]2(NCCN3CCS(=O)(=O)CC3)CC[C@]3(C)[C@H](CC[C@@H]4[C@@]5(C)CC=C(C6=CC[C@](COc7ncccc7C#N)(C(=O)O)CC6)C(C)(C)[C@@H]5CC[C@]43C)[C@@H]12	Vd	L/kg	0.3

* * *

# Test system: Human immunodeficiency virus 1
# Protocol summary: In vitro antiviral activity against fully replicating HIV1 NL4-3 harboring Gag T332S/V362I/prR41G mutant
# Assay type: functional, organism-based
# Conditions: Human immunodeficiency virus 1, NL4-3
Catalogue of EC50 values
Recorded endpoint: EC50 (nM)

Compound	Value units	Reported result
C=C(C)[C@@H]1CC[C@]2(NCCN3CCS(=O)(=O)CC3)CC[C@]3(C)[C@H](CC[C@@H]4[C@@]5(C)CC=C(C6=CCC(COc7nccs7)(C(=O)O)CC6)C(C)(C)[C@@H]5CC[C@]43C)[C@@H]12 (mixture of isomers)	nM	38.9
C=C(C)[C@@H]1CC[C@]2(NCCN3CCS(=O)(=O)CC3)CC[C@]3(C)[C@H](CC[C@@H]4[C@@]5(C)CC=C(C6=CCC(COc7ccccc7Cl)(C(=O)O)CC6)C(C)(C)[C@@H]5CC[C@]43C)[C@@H]12 (mixture of isomers)	nM	23.1

* * *

# Protocol summary: AUC (infinity) in dog at 5 mg/kg, po
# Type: ADME, organism-based, Canis lupus familiaris
# Conditions: in vivo

Smiles str	Value units	AUC(0-inf)
C=C(C)[C@@H]1CC[C@]2(NCCN3CCS(=O)(=O)CC3)CC[C@]3(C)[C@H](CC[C@@H]4[C@@]5(C)CC=C(C6=CC[C@](COc7ncccc7C#N)(C(=O)O)CC6)C(C)(C)[C@@H]5CC[C@]43C)[C@@H]12	µM·h	120

* * *

# Protocol summary: AUC (infinity) in mouse at 5 mg/kg, po
# Format: ADME, organism-based
# Conditions: in vivo

Smiles str	AUC(0-inf) (µM·h)
C=C(C)[C@@H]1CC[C@]2(NCCN3CCS(=O)(=O)CC3)CC[C@]3(C)[C@H](CC[C@@H]4[C@@]5(C)CC=C(C6=CC[C@](COc7ncccc7C#N)(C(=O)O)CC6)C(C)(C)[C@@H]5CC[C@]43C)[C@@H]12	73.8

* * *

# Protocol summary: AUC (infinity) in dog at 2 mg/kg, iv
# Format: ADME, organism-based, Canis lupus familiaris
# Conditions: in vivo

Smiles str	AUC(0-inf) [µM·h]
C=C(C)[C@@H]1CC[C@]2(NCCN3CCS(=O)(=O)CC3)CC[C@]3(C)[C@H](CC[C@@H]4[C@@]5(C)CC=C(C6=CC[C@](COc7ncccc7C#N)(C(=O)O)CC6)C(C)(C)[C@@H]5CC[C@]43C)[C@@H]12	99.8

* * *

# Protocol summary: Oral bioavailability in Cynomolgus monkey at 5 mg/kg
# Assay type: ADME, organism-based, Macaca fascicularis
# Conditions: in vivo

Smiles str	Value units	bioavailability
C=C(C)[C@@H]1CC[C@]2(NCCN3CCS(=O)(=O)CC3)CC[C@]3(C)[C@H](CC[C@@H]4[C@@]5(C)CC=C(C6=CC[C@](COc7ncccc7C#N)(C(=O)O)CC6)C(C)(C)[C@@H]5CC[C@]43C)[C@@H]12	%	43.5

* * *

# Protocol summary: Elimination half life in rat at 1 mg/kg, iv
# Assay type: ADME, organism-based
# Conditions: in vivo, read-out: beta t1/2 (converted)
Recorded endpoint: half-life (h)

Smiles str	Recorded endpoint	Value units	Reported result
C=C(C)[C@@H]1CC[C@]2(NCCN3CCS(=O)(=O)CC3)CC[C@]3(C)[C@H](CC[C@@H]4[C@@]5(C)CC=C(C6=CC[C@](COc7ncccc7C#N)(C(=O)O)CC6)C(C)(C)[C@@H]5CC[C@]43C)[C@@H]12	half-life	h	8.6

* * *

# Protocol summary: Aqueous solubility of compound in fed state simulated intestinal fluid (FeSSIF)
# Format: physicochemical
# Conditions: simulated gi fluid
Recorded endpoint: solubility (µg/mL)

Smiles str	Recorded endpoint	Reported result
C=C(C)[C@@H]1CC[C@]2(NCCN3CCS(=O)(=O)CC3)CC[C@]3(C)[C@H](CC[C@@H]4[C@@]5(C)CC=C(C6=CC[C@](COc7ncccc7C#N)(C(=O)O)CC6)C(C)(C)[C@@H]5CC[C@]43C)[C@@H]12	solubility	363

* * *

Catalogue of pEC50 values
# Tested on: Human immunodeficiency virus 1
# Protocol summary: In vitro antiviral activity against fully replicating wild type HIV1 NL4-3
# Format: functional, organism-based
# Conditions: Human immunodeficiency virus 1, NL4-3
pEC50: −log10 of the molar value.

Molecule	Target or test system	pEC50
C=C(C)[C@@H]1CC[C@]2(NCCN3CCS(=O)(=O)CC3)CC[C@]3(C)[C@H](CC[C@@H]4[C@@]5(C)CC=C(C6=CCC(COc7ncccn7)(C(=O)O)CC6)C(C)(C)[C@@H]5CC[C@]43C)[C@@H]12 (mixture of isomers)	Human immunodeficiency virus 1	8.74
C=C(C)[C@@H]1CC[C@]2(NCCN3CCS(=O)(=O)CC3)CC[C@]3(C)[C@H](CC[C@@H]4[C@@]5(C)CC=C(C6=CCC(COc7cccc(F)c7)(C(=O)O)CC6)C(C)(C)[C@@H]5CC[C@]43C)[C@@H]12 (mixture of isomers)	Human immunodeficiency virus 1	8.08
C=C(C)[C@@H]1CC[C@]2(NCCN3CCS(=O)(=O)CC3)CC[C@]3(C)[C@H](CC[C@@H]4[C@@]5(C)CC=C(C6=CCC(COc7ccc(F)cc7)(C(=O)O)CC6)C(C)(C)[C@@H]5CC[C@]43C)[C@@H]12 (mixture of isomers)	Human immunodeficiency virus 1	8.33
C=C(C)[C@@H]1CC[C@]2(NCCN3CCS(=O)(=O)CC3)CC[C@]3(C)[C@H](CC[C@@H]4[C@@]5(C)CC=C(C6=CCC(COc7cc(C#N)ccn7)(C(=O)O)CC6)C(C)(C)[C@@H]5CC[C@]43C)[C@@H]12 (mixture of isomers)	Human immunodeficiency virus 1	9.05

* * *

Catalogue of EC50 values
# Tested on: Human immunodeficiency virus 1
# Protocol summary: In vitro antiviral activity against fully replicating wild type HIV1 NL4-3
# Type: functional, organism-based
# Conditions: Human immunodeficiency virus 1, NL4-3

Compound	Target or test system	EC50 [nM]
C=C(C)[C@@H]1CC[C@]2(NCCN3CCS(=O)(=O)CC3)CC[C@]3(C)[C@H](CC[C@@H]4[C@@]5(C)CC=C(C6=CCC(COc7ccccc7Cl)(C(=O)O)CC6)C(C)(C)[C@@H]5CC[C@]43C)[C@@H]12 (mixture of isomers)	Human immunodeficiency virus 1	9.7
C=C(C)[C@@H]1CC[C@]2(NCCN3CCS(=O)(=O)CC3)CC[C@]3(C)[C@H](CC[C@@H]4[C@@]5(C)CC=C(C6=CCC(COc7ccc(C#N)cn7)(C(=O)O)CC6)C(C)(C)[C@@H]5CC[C@]43C)[C@@H]12 (mixture of isomers)	Human immunodeficiency virus 1	1.9
C=C(C)[C@@H]1CC[C@]2(NCCN3CCS(=O)(=O)CC3)CC[C@]3(C)[C@H](CC[C@@H]4[C@@]5(C)CC=C(C6=CCC(COc7cccnn7)(C(=O)O)CC6)C(C)(C)[C@@H]5CC[C@]43C)[C@@H]12 (mixture of isomers)	Human immunodeficiency virus 1	2.6
C=C(C)[C@@H]1CC[C@]2(NCCN3CCS(=O)(=O)CC3)CC[C@]3(C)[C@H](CC[C@@H]4[C@@]5(C)CC=C(C6=CC[C@@](COc7cnccn7)(C(=O)O)CC6)C(C)(C)[C@@H]5CC[C@]43C)[C@@H]12	Human immunodeficiency virus 1	2.8
C=C(C)[C@@H]1CC[C@]2(NCCN3CCS(=O)(=O)CC3)CC[C@]3(C)[C@H](CC[C@@H]4[C@@]5(C)CC=C(C6=CCC(COc7ccccc7F)(C(=O)O)CC6)C(C)(C)[C@@H]5CC[C@]43C)[C@@H]12 (mixture of isomers)	Human immunodeficiency virus 1	6.1
C=C(C)[C@@H]1CC[C@]2(NCCN3CCS(=O)(=O)CC3)CC[C@]3(C)[C@H](CC[C@@H]4[C@@]5(C)CC=C(C6=CC[C@@](COc7ccccn7)(C(=O)O)CC6)C(C)(C)[C@@H]5CC[C@]43C)[C@@H]12	Human immunodeficiency virus 1	3.5
C=C(C)[C@@H]1CC[C@]2(NCCN3CCS(=O)(=O)CC3)CC[C@]3(C)[C@H](CC[C@@H]4[C@@]5(C)CC=C(C6=CCC(COc7ccccc7)(C(=O)O)CC6)C(C)(C)[C@@H]5CC[C@]43C)[C@@H]12 (mixture of isomers)	Human immunodeficiency virus 1	5
C=C(C)[C@@H]1CC[C@]2(NCCN3CCS(=O)(=O)CC3)CC[C@]3(C)[C@H](CC[C@@H]4[C@@]5(C)CC=C(C6=CCC(COc7nnnn7C)(C(=O)O)CC6)C(C)(C)[C@@H]5CC[C@]43C)[C@@H]12 (mixture of isomers)	Human immunodeficiency virus 1	1.7
